PROTOCOL: PK in U-87MG subcutaneous tumor model of BALB/c nude mouse
Format: in vivo
CONDITION PARAMETERS: female, plasma, U87MG tumor-bearing nude mouse, PO QD 3 weeks, 50 mg/kg, after last administration (Day 22)
Give AUC(0-t) for every item shown.
Lab book: enter the figure in ng·h/mL, no units written.

# input For the compound CCN1CCN(Cc2ccc(Nc3ncc(F)c(-c4cc(F)c5nc(C)n(C(C)C)c5c4)n3)nc2)CC1 [LY2835219, reference compound] , what AUC(0-t) is on record?
# output 19400

# input Try this compound too: CCN1CCN(Cc2cnc(Nc3cc(-c4cc(F)c5nc(C)n(C(C)C)c5c4)c(F)cn3)nc2)CC1 [Compound 1]
# output 23500

----------
PROTOCOL: PK in U-87MG subcutaneous tumor model of BALB/c nude mouse
Assay type: in vivo
CONDITION PARAMETERS: female, plasma, U87MG tumor-bearing nude mouse, PO QD 3 weeks, 200 mg/kg, after last administration (Day 22)
ATTRIBUTE MEASURED: Cmax (ng/mL)
Lab book: enter the figure in ng/mL, no units written.

# input For the molecule CCN1CCN(Cc2cnc(Nc3cc(-c4cc(F)c5nc(C)n(C(C)C)c5c4)c(F)cn3)nc2)CC1 [Compound 1] , what Cmax is on record?
# output 2510

----------
PROTOCOL: PK in Colo-205 subcutaneous tumor model of BALB/c nude mouse
Type: in vivo
CONDITION PARAMETERS: female, plasma, Colo-205 tumor-bearing nude mouse, PO QD 22 days, 100 mg/kg, after last administration
Procedure: Test animal: female nude mouse (BALB/c), 8 mice/dose group/test compound, weight: 19-27 g/mouse. COLO205 cancer cells were cultured in RPMI-1640 medium containing inactivated 10% fetal bovine serum, 100 U/mL penicillin, 100 μg/mL streptomycin and 2 mM glutamine, in a 37° C., 5% CO2 incubator. The initial concentration of cell culture was 5×10^5 cells/mL, and the cells were transferred to other bottles every 3 or 4 days and passaged. […]
ATTRIBUTE MEASURED: AUC(0-t) (ng·h/mL)
Lab book: enter the figure in ng·h/mL, no units written.

# input For the compound CCN1CCN(Cc2ccc(Nc3ncc(F)c(-c4cc(F)c5nc(C)n(C(C)C)c5c4)n3)nc2)CC1 [LY2835219, reference compound] , what AUC(0-t) is on record?
# output 23000

# input Try this compound too: CCN1CCN(Cc2cnc(Nc3cc(-c4cc(F)c5nc(C)n(C(C)C)c5c4)c(F)cn3)nc2)CC1
# output 48300

----------
PROTOCOL: PK in U-87MG subcutaneous tumor model of BALB/c nude mouse
Format: in vivo
CONDITION PARAMETERS: female, plasma, U87MG tumor-bearing nude mouse, PO QD 3 weeks, 200 mg/kg, after last administration (Day 22)
ATTRIBUTE MEASURED: AUC(0-t) (ng·h/mL)
Lab book: enter the figure in ng·h/mL, no units written.

# input For the molecule CCN1CCN(Cc2cnc(Nc3cc(-c4cc(F)c5nc(C)n(C(C)C)c5c4)c(F)cn3)nc2)CC1 , what AUC(0-t) is on record?
# output 49700

----------
PROTOCOL: Pharmacokinetics in nude mouse (IV and PO)
Assay type: in vivo
CONDITION PARAMETERS: female, BALB/c nude, plasma, PO, 10 mg/kg
Give AUC(0-t) for every item shown.
Lab book: enter the figure in ng·h/mL, no units written.

# input For the compound CCN1CCN(Cc2cnc(Nc3cc(-c4cc(F)c5nc(C)n(C(C)C)c5c4)c(F)cn3)nc2)CC1 , what AUC(0-t) is on record?
# output 2760

# input Try this compound too: CCN1CCN(Cc2ccc(Nc3ncc(F)c(-c4cc(F)c5nc(C)n(C(C)C)c5c4)n3)nc2)CC1 [LY2835219, reference compound]
# output 1310

# input Try this compound too: Cc1nc2c(F)cc(-c3cc(Nc4ncc(CN5C[C@H]6CN(C)C[C@H]6C5)cn4)ncc3F)cc2n1C(C)C
# output 1410

----------
PROTOCOL: Linear pharmacokinetics in rat (PO)
Assay type: in vivo, male SD rat
CONDITION PARAMETERS: male, SD, plasma, 135 mg/kg
ATTRIBUTE MEASURED: Tmax (h)
Lab book: enter the figure in h, no units written.

# input For the compound CCN1CCN(Cc2cnc(Nc3cc(-c4cc(F)c5nc(C)n(C(C)C)c5c4)c(F)cn3)nc2)CC1 [Compound 1] , what Tmax is on record?
# output 24

# input Try this compound too: CCN1CCN(Cc2ccc(Nc3ncc(F)c(-c4cc(F)c5nc(C)n(C(C)C)c5c4)n3)nc2)CC1 [LY2835219, reference compound]
# output 24

----------
PROTOCOL: Pharmacokinetics in nude mouse (IV and PO)
Format: in vivo
CONDITION PARAMETERS: female, BALB/c nude, plasma, IV, 2.5 mg/kg
ATTRIBUTE MEASURED: clearance
Write down the value, and be sure its unit follows.

# input For the compound Cc1nc2c(F)cc(-c3cc(Nc4ncc(CN5C[C@H]6CN(C)C[C@H]6C5)cn4)ncc3F)cc2n1C(C)C , what clearance is on record?
# output 40.2 mL/min/kg

----------
Give AUC(0-t) for every item shown.
PROTOCOL: PK in Colo-205 subcutaneous tumor model of BALB/c nude mouse
Assay type: in vivo
CONDITION PARAMETERS: female, plasma, Colo-205 tumor-bearing nude mouse, PO QD 22 days, 25 mg/kg, after last administration
Lab book: enter the figure in ng·h/mL, no units written.

# input For the compound CCN1CCN(Cc2cnc(Nc3cc(-c4cc(F)c5nc(C)n(C(C)C)c5c4)c(F)cn3)nc2)CC1 , what AUC(0-t) is on record?
# output 12300

# input Try this compound too: CCN1CCN(Cc2ccc(Nc3ncc(F)c(-c4cc(F)c5nc(C)n(C(C)C)c5c4)n3)nc2)CC1 [LY2835219, reference compound]
# output 9120

----------
PROTOCOL: PK in Colo-205 subcutaneous tumor model of BALB/c nude mouse
Type: in vivo
CONDITION PARAMETERS: female, plasma, Colo-205 tumor-bearing nude mouse, PO QD 22 days, 100 mg/kg, after last administration
ATTRIBUTE MEASURED: Tmax (h)
Lab book: enter the figure in h, no units written.

# input For the molecule CCN1CCN(Cc2cnc(Nc3cc(-c4cc(F)c5nc(C)n(C(C)C)c5c4)c(F)cn3)nc2)CC1 [Compound 1] , what Tmax is on record?
# output 8

# input Try this molecule too: CCN1CCN(Cc2ccc(Nc3ncc(F)c(-c4cc(F)c5nc(C)n(C(C)C)c5c4)n3)nc2)CC1 [LY2835219, reference compound]
# output 8

----------
Give AUC(0-t) for every item shown.
PROTOCOL: PK in U-87MG subcutaneous tumor model of BALB/c nude mouse
Type: in vivo
CONDITION PARAMETERS: female, plasma, U87MG tumor-bearing nude mouse, PO QD 3 weeks, 100 mg/kg, after last administration (Day 22)
Description: Test animal: female nude mouse (BALB/c), 10 mice/dose group/test compound, weight: 18-22 g/mouse. U87MG cells from ATCC were cultured in MEM medium containing 10% fetal bovine serum; the cells were digested with trypsin containing EDTA by conventional methods; the cells were passaged for two generations every week, and were continuously cultured in a 37° C., 5% CO2 incubator. […]
Write down the value, and be sure its unit follows.

# input For the molecule CCN1CCN(Cc2ccc(Nc3ncc(F)c(-c4cc(F)c5nc(C)n(C(C)C)c5c4)n3)nc2)CC1 [LY2835219, reference compound] , what AUC(0-t) is on record?
# output 27900 ng·h/mL

# input Try this molecule too: CCN1CCN(Cc2cnc(Nc3cc(-c4cc(F)c5nc(C)n(C(C)C)c5c4)c(F)cn3)nc2)CC1 [Compound 1]
# output 34800 ng·h/mL

----------
Give AUC(0-t) for every item shown.
PROTOCOL: In vivo assay for blood brain barrier permeability in rat
CONDITION PARAMETERS: male, SD, 30 mg/kg, PO, dose 30, plasma

# input For the molecule CCN1CCN(Cc2ccc(Nc3ncc(F)c(-c4cc(F)c5nc(C)n(C(C)C)c5c4)n3)nc2)CC1 [LY2835219, reference compound] , what AUC(0-t) is on record?
# output 40500 ng·h/mL

# input Try this molecule too: CCN1CCN(Cc2cnc(Nc3cc(-c4cc(F)c5nc(C)n(C(C)C)c5c4)c(F)cn3)nc2)CC1
# output 49200 ng·h/mL

----------
PROTOCOL: In vivo assay for blood brain barrier permeability in rat
CONDITION PARAMETERS: male, SD, 30 mg/kg, PO, dose 30, cerebrospinal fluid
ATTRIBUTE MEASURED: Tmax
Write down the value, and be sure its unit follows.

# input For the compound CCN1CCN(Cc2cnc(Nc3cc(-c4cc(F)c5nc(C)n(C(C)C)c5c4)c(F)cn3)nc2)CC1 , what Tmax is on record?
# output 4 h

# input Try this compound too: CCN1CCN(Cc2ccc(Nc3ncc(F)c(-c4cc(F)c5nc(C)n(C(C)C)c5c4)n3)nc2)CC1 [LY2835219, reference compound]
# output 4 h
